# Target desc: Polyunsaturated fatty acid 5-lipoxygenase (Rattus norvegicus, UniProt P12527)
# Sequence (P12527 whole entry): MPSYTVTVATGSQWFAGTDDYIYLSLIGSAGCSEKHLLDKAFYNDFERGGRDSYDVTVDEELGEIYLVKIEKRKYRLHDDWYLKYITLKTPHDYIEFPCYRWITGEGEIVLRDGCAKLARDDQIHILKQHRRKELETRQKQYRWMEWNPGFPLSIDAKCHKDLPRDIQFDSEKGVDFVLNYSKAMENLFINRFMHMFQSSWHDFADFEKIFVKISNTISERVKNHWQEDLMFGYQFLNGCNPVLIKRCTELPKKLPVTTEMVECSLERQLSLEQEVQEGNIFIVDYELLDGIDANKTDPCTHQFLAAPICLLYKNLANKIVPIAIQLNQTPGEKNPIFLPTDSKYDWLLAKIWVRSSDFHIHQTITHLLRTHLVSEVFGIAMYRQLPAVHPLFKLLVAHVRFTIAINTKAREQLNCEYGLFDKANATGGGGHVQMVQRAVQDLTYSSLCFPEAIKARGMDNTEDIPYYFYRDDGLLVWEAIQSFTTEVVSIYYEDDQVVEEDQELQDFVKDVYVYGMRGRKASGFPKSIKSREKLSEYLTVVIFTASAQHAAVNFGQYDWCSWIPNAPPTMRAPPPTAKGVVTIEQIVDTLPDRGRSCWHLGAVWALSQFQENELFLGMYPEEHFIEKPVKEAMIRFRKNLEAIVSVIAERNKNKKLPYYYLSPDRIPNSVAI
# Assay protocol: inhibitory activity against 5-lipoxygenase in rat basophilic leukemia cell line.
pIC50: −log10 of the molar value.
Hi, to clarify the labels: class 1 covers pIC50 from 6 upward, class 0 covers anything below 6.

## Task Reported pIC50 reaches at least 6 for "CON(/C=C\C(=O)c1ccc(F)cc1)Cc1ccccc1" ?
## Result class 0

## Task Check if pIC50 >= 6 (inclusive). Item: "CC(=O)ON(/C=C\C(=O)C(C)(C)C)Cc1ccccc1"
## Result class 0

## Task Dear colleague, could you confirm whether "O=C(/C=C\N(O)Cc1ccc2ccccc2c1)c1ccc(F)cc1" has pIC50 at or above 6?
## Result class 1

----------
# Target desc: Polyunsaturated fatty acid 5-lipoxygenase (Rattus norvegicus, UniProt P12527)
# Assay protocol: inhibitory activity against 5-lipoxygenase in rat basophilic leukemia cell line.
# Type: cell-based, RBL-1
# binning rule on IC50: bin 1 (below 900 nM), bin 2 (900 nM to below 2000 nM), bin 3 (2000 nM or more)

Solved entries:
{"columns": ["Smiles structure", "Label"],
 "data": [
  ["CN(O)/C=C\\C(=O)Sc1ccc2ccccc2c1", "bin 1"],
  ["O=C(/C=C\\N(O)Cc1ccccc1)c1ccc(Cl)c(Cl)c1", "bin 1"],
  ["O=C(/C=C\\N(O)c1ccccc1)c1ccc(F)cc1", "bin 1"],
  ["CN(O)/C=C\\C(=O)c1ccc(OCc2ccccn2)cc1", "bin 3"]
]}

## Task Please report the category associated with "C/C(=C/N(C)O)C(=O)c1ccc(OCc2ccccc2)cc1" , nothing else.
## Result bin 3

## Task Which bin, given its IC50, does "CN(O)/C=C\C(=O)c1ccc(F)cc1" occupy?
## Result bin 3

## Task Input "O=C(/C=C\N(O)Cc1ccc2ccccc2c1)C1CC1" ; output its category
## Result bin 2

## Task Class? Entry: "O=C(/C=C\N(O)Cc1ccccc1)c1ccc(-c2ccccc2)cc1"
## Result bin 1

## Task Determine which band this compound sits in: "O=C(/C=C\N(O)CCc1ccccc1)c1ccc(F)cc1"
## Result bin 1

----------
# Target desc: Polyunsaturated fatty acid 5-lipoxygenase (Rattus norvegicus, UniProt P12527)
# Assay protocol: inhibitory activity against 5-lipoxygenase in rat basophilic leukemia cell line.
# Format: cell-based, RBL-1
Readout kind: IC50 (nM)
Give bare numbers, in nM.

Give one value of IC50 per listed compound.
1. O=C(/C=C\N(O)C1CCCCC1)c1ccc2ccccc2c1
2. O=C(/C=C\N(O)Cc1ccccc1)c1ccc(Cl)cc1
3. O=C(/C=C\N(O)Cc1ccccc1)c1c(Cl)cccc1Cl
4. CN(O)/C=C\C(=O)c1ccc(OCc2ccccc2)cc1
5. O=C(/C=C\N(O)C1CCCCC1)c1ccc(F)cc1
6. CN(O)/C=C\C(=O)c1ccc2ccccc2c1

## Result
2600
1500
1700
1900
270
1800

----------
# Target desc: Polyunsaturated fatty acid 5-lipoxygenase (Rattus norvegicus, UniProt P12527)
# Assay protocol: inhibitory activity against 5-lipoxygenase in rat basophilic leukemia cell line.
Readout kind: pIC50
One number for each entry, as −log10 of the molar value.

Completed entries (count: 5):
{"columns": ["Smiles structure", "pIC50"],
 "data": [
  ["COC(=O)/C=C\\N(O)Cc1ccc(OCc2ccccc2)cc1", 5.32],
  ["O=C(/C=C\\N(O)Cc1ccc(-c2ccccc2)cc1)c1ccc(F)cc1", 5.52],
  ["O=C(/C=C\\N(O)Cc1ccccc1)c1ccncc1", 5.70],
  ["O=C(/C=C\\N(O)Cc1ccc(Oc2ccccc2)cc1)C1CC1", 5.85],
  ["CN(O)/C=C\\C(=O)c1cc(C(F)(F)F)cc(C(F)(F)F)c1", 6.04]
]}

Please state, for each entry, its recorded pIC50.
1. CCc1c(N(O)/C=C\C(=O)c2ccc3ccccc3c2)ccc2ccccc12
2. CN(O)/C=C\C(=O)c1ccc([N+](=O)[O-])cc1
3. CN(O)/C=C\C(=O)c1ccc(Cl)cc1
4. O=C(/C=C\N(O)Cc1ccc(-c2ccccc2)cc1)c1ccco1
5. O=C(/C=C\N(O)Cc1ccc(-c2ccccc2)cc1)C1CC1
6. O=C(/C=C\N(O)Cc1ccc(OCc2ccccc2)cc1)C1CC1

## Result
1: 6.12; 2: 5.82; 3: 6.26; 4: 5.51; 5: 5.92; 6: 5.59

Parameters: items (list). Returns: pIC50 for each item.
1. O=C(/C=C\N(O)c1ccccc1)c1ccc2ccccc2c1
2. O=C(/C=C\N(O)Cc1ccccc1)c1ccc([N+](=O)[O-])cc1
3. CCCCCCCCCCN(O)/C=C\C(=O)c1ccc(F)cc1

## Result
1. 6.09
2. 5.60
3. 4.89
